# Tested on: Hypothalamus
# experiment: Biodistribution in Sprague-Dawley rat brain hypothalamus at 0.3 to 0.8 nmol, iv after 2 mins by gamma counting analysis
# Format: ADME, organism-based
# conditions: in vivo
Please provide measured SUV for the entries that follow.
Give bare numbers.

Examples from the recorded data:
- O=[11C](NC1CCC1)Oc1ccc(O)c(-c2ccccc2)c1: 1.81
- CCCCCCN[11C](=O)Oc1ccc(O)c(-c2ccccc2)c1: 1.21
- O=[11C](NC1CCCC1)Oc1ccc(O)c(-c2ccccc2)c1: 1.87
- O=[11C](NC1CCCCC1)Oc1ccc(O)c(-c2ccccc2)c1: 1.61

Let's switch to this compound now.
Please look at NC(=O)c1cccc(-c2cccc(O[11C](=O)NC3CCCCC3)c2)c1 and tell me its recorded SUV on Hypothalamus.
0.47
